assayed.system: T1, human histidine-rich glycoprotein (HRG), purified from human plasma (human, UniProt P04196 19-525)
T1 construct: also called human purified HRG; human purified HRG protein
T1 sequence: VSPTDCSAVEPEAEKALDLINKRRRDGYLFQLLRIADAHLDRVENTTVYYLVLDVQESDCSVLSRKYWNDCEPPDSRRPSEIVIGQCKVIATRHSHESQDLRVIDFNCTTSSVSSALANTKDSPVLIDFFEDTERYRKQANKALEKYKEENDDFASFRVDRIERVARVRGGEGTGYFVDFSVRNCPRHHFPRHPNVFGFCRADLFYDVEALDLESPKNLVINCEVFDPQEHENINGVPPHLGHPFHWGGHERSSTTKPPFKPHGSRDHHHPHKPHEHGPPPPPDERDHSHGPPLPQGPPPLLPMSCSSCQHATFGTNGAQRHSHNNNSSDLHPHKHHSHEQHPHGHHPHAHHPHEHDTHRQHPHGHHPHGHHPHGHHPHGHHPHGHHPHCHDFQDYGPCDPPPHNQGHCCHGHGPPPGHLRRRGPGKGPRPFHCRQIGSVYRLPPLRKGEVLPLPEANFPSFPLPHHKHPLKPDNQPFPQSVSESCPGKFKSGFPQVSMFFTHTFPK
method: sandwich ELISA, HRG captured by solid phase 81-2C
property.name: absorbance at 450 nm

INSERT INTO measurements (binder, property_name, result) VALUES
  ('anti-HRG monoclonal antibody 3-4E (antibody, V domains shown, Mouse (BALB/c) hybridoma monoclonal, Protein A purified; biotin-labeled when used as detection antibody) VH: QVQLQQSGAELMKPGASVKISCKATGYTFSTFWMEWVKQRPGHGLEWIGEILPGSGNANYNEKFKGKATFTADTSSNTAYMQLSSLTSEDSAVYYCAIHYYGYGFAYWGQGTLVTVSA VL: DNVLTQSPAIMSASLGERVTMTCTASSSVSSSYLHWYQQKPGSSPKLWIYTTSNLASGVPVRFSGSGSGTSYSLTISSMEAEDAATYYCHQYHRSPWTFGGGTKLEIK', 'absorbance at 450 nm', '< 1 OD'),
  ('anti-HRG monoclonal antibody 67-8A-5F (antibody, V domains shown, Mouse hybridoma monoclonal) VH: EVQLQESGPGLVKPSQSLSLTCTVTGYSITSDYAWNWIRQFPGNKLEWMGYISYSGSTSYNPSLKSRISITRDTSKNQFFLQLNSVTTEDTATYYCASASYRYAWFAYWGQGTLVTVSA VL: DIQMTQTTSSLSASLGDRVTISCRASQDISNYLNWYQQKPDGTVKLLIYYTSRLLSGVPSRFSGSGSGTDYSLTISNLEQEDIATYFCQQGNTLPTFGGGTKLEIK', 'absorbance at 450 nm', '< 1 OD'),
  ('anti-HRG monoclonal antibody 75-2D (antibody, V domains shown, Mouse hybridoma monoclonal; also called clone No. 75-2D) VH: QVQLQQSGAELMKPGASVKISCKATGYTFSSYWIEWVKQRPGHGLEWIGEILPGSGRTNYNEKFKGKATFTADTSSNTAYMQLSSLTSEDSAVYYCARYSYFYYFDYWGQGTTLTVSS VL: DNVLTQSPAIMSASLGERVTMTCTASSSVSSSYLHWYQQKPGSSPKLWIYSTSNLASGVPARFSGSGSGTSYSLTISSMEAEDAATYYCHQYHRSPWTFGGGTKLEIK', 'absorbance at 450 nm', '< 1 OD');
